Source of measurements: ChEMBL document CHEMBL4680100

Item-by-item account of logD
# Experiment description: Octanol/water partition coefficient, logD of the compound at pH 7.4 by HPLC analysis
Endpoint label: logD

{"Compound": "CC1(C)CC(=O)N(c2ccc(F)c(C(F)(F)F)c2)C1=O", "Quantitative result": 3.4}
{"Compound": "CC1(C)CN(c2ccc(F)c(C(F)(F)F)c2)C(=O)N1", "Quantitative result": 3.2}
{"Compound": "O=C1CNC(=O)N1c1ccc(F)c(C(F)(F)F)c1", "Quantitative result": 2}
{"Compound": "CC1(C)NC(=O)N(c2ccc(F)c(C(F)F)c2)C1=O", "Quantitative result": 2.2}
{"Compound": "CC1(C)C(=O)N(c2ccc(F)c(C(F)(F)F)c2)C(=O)N1CCc1ccccc1", "Quantitative result": 4.6}
{"Compound": "CC1(C)C(=O)NC(=O)N1c1ccc(F)c(C(F)(F)F)c1", "Quantitative result": 2.5}
{"Compound": "CN1C(=O)N(c2ccc(F)c(C(F)(F)F)c2)C(=O)C1(C)C", "Quantitative result": 3.2}
{"Compound": "CC1(CO)NC(=O)N(c2ccc(F)c(C(F)(F)F)c2)C1=O (stereo not drawn)", "Quantitative result": 1.9}
{"Compound": "CC1(C)NC(=O)N(c2ccnc3ccccc23)C1=O", "Quantitative result": 1.2}
{"Compound": "CC1(C)NC(=O)N(c2ccc([N+](=O)[O-])c(C(F)(F)F)c2)C1=O [NILUTAMIDE]", "Quantitative result": 3}
{"Compound": "CC1(C)NC(=O)N(c2cccnc2)C1=O", "Quantitative result": 0.2}
{"Compound": "CC1(C)C(=O)N(c2ccc(F)c(C(F)(F)F)c2)C(=O)N1S(C)(=O)=O", "Quantitative result": 3.8}
{"Compound": "O=C1NC2(CCCC2)C(=O)N1c1ccc(F)c(C(F)(F)F)c1", "Quantitative result": 3.2}
{"Compound": "CC1(C)OC(=O)N(c2ccc(F)c(C(F)(F)F)c2)C1=O", "Quantitative result": 3.7}
{"Compound": "CC1(C)NC(=O)N(c2ccc(C(F)(F)F)nc2)C1=O", "Quantitative result": 1.8}
{"Compound": "CC1(C)CC(=O)N(c2ccc(F)c(C(F)(F)F)c2)C(=O)N1", "Quantitative result": 2.4}
{"Compound": "CC1(C)NC(=O)N(c2ccc(F)c(C#N)c2)C1=O", "Quantitative result": 1.7}
{"Compound": "Cc1ccc(N2C(=O)NC(C)(C)C2=O)cc1C(F)(F)F", "Quantitative result": 2.8}
{"Compound": "CN(C)C(=O)c1cc(N2C(=O)NC(C)(C)C2=O)ccc1F", "Quantitative result": 0.9}
{"Compound": "CC1(C)NC(=O)N(c2cccc(C(F)(F)F)c2)C1=O", "Quantitative result": 2.5}
{"Compound": "CC1(C)NC(=O)N(c2cnccn2)C1=O", "Quantitative result": 0.3}
{"Compound": "CC1(C)NC(=O)C(c2ccc(F)c(C(F)(F)F)c2)C1=O (stereo not drawn)", "Quantitative result": 0.5}
{"Compound": "CC1(C)C(=O)N(c2ccc(F)c(C(F)(F)F)c2)C(=O)N1S(=O)(=O)c1ccccc1", "Quantitative result": 4.6}
